Test Protocol: Quantitative highthroughput screen to assess conditional lethalithy of SEM cells grown in RPMI1640 with dialyzed fetal bovine serum (RPMI+ds) (AID 1963884); further: potency means the concentration at half of the fitted maximal effect; nearly all actives have a fitted effect of over 35% in size
Details: SEM B-ALL cells, RPMI+dialyzed FBS, CellTiter-Glo viability, 48 h; series mostly up to 45.8 µM
Records with an inconclusive call do not appear. Active and inactive are the calls of the source. The call rests on the fitted dose curve; in most records, active means well fitted cell-killing curve with a large enough effect; inconclusive means small, poorly fitted or top-dose-only effect, or effect the other way; inactive means no such curve, though single readings can be large or run the other way.
Task for the reader: assign each of the following compounds its reported Potency.

Lookup result for CCCC1OC2C[C@@H]3[C@H]4CCC5=CC(=O)C=C[C@]5(C)[C@H]4C(O)C[C@]3(C)[C@]2(C(=O)CO)O1 (some centres undefined) ; measured Potency: 132 nM (active)

Lookup result for `C[C@H]1COC2=C1C(=O)C(=O)c1c2ccc2c1CCCC2(C)C` ; measured Potency: 13200 nM (active)

Lookup result for `Cc1cc(Nc2ncc3c(n2)N(C)C(=O)N(c2cc(NC(=O)c4cccc(C(F)(F)F)c4)ccc2C)C3)n(C)n1` ; measured Potency: 372 nM (active)

====

Test Protocol: Cellular viability qHTS for adrenocortical cancer (ACC) cell line NCI-H295R (AID 1963990); further: nearly all actives have a fitted effect of over 60% in size
Details: CellTiter-Glo ATP luminescence, 48 h; series mostly up to 46.1 µM
Inconclusive results are not listed. Active and inactive are the calls of the source. The call rests on the fitted dose curve; in most records, active means well fitted cell-killing curve with a large enough effect; inconclusive means small, poorly fitted or top-dose-only effect; inactive means flat fitted curve, though single readings scatter. Peptide text beside a SMILES is read from it. * marks the point of attachment. Cbz = O=C(OCc1ccccc1)*
Return exactly one item of t for active, f for inactive

Problem: Hello, I am checking results. What call was entered for `CC(C)C(=O)c1c(C(C)C)nn2ccccc12` ?
Solution: f

Problem: Hello, I am checking results. What call was entered for `COc1ccc(-c2oc3c(CC=C(C)C)c(O)cc(O)c3c(=O)c2O)cc1` ?
Solution: f

Problem: Hello, I am checking results. What call was entered for `CCOC(=O)C(=O)CCCCCCl` ?
Solution: f

Problem: Hello, I am checking results. What call was entered for CC1CNc2c(cccc2S(=O)(=O)N[C@@H](CCCN=C(N)N)C(=O)N2CC[C@@H](C)C[C@@H]2C(=O)O)C1 (some centres not stated) ?
Solution: f

Problem: Hello, I am checking results. What call was entered for `NC(=O)C1(N2CCCCC2)CCN(CCCC(=O)c2ccc(F)cc2)CC1` ?
Solution: f

Problem: Hello, I am checking results. What call was entered for `CN1CCN(C(=O)C2CCCCC2)CC1` ?
Solution: f

Problem: Hello, I am checking results. What call was entered for CC(C)(C)C1CCC(CC2=C(O)c3ccccc3C(=O)C2=O)CC1 (configuration not stated) ?
Solution: f

Problem: Hello, I am checking results. What call was entered for `O=C1c2cccc3c2[C@H](CCC3)CN1[C@@H]1CN2CCC1CC2` ?
Solution: f

Problem: Hello, I am checking results. What call was entered for `Cn1cnc2c(F)c(Nc3ccc(Br)cc3Cl)c(C(=O)NOCCO)cc21` ?
Solution: f

Problem: Hello, I am checking results. What call was entered for CC(C)C[C@@H](C=O)NC(=O)[C@H](CC(C)C)NC(=O)[C@H](CC(C)C)NC(=O)OCc1ccccc1 (Cbz-Leu-Leu-Leu-aldehyde) ?
Solution: t

Problem: Hello, I am checking results. What call was entered for `COc1ccc2c(c1)[C@]1(C[C@H]1c1ccc3c(/C=C/c4ccc(CN5C[C@@H](C)O[C@@H](C)C5)cc4)n[nH]c3c1)C(=O)N2` ?
Solution: t

Problem: Hello, I am checking results. What call was entered for `N[C@@H](Cc1ccc(O)c(O)c1)C(=O)O` ?
Solution: f

Problem: Hello, I am checking results. What call was entered for `CCCc1cc(C(N)=S)ccn1` ?
Solution: f

Problem: Hello, I am checking results. What call was entered for `Cc1cc(C(=O)NOCCO)c(Nc2ccc(I)cc2F)n(C)c1=O` ?
Solution: f

Problem: Hello, I am checking results. What call was entered for `CN(C)c1cccc(-c2c3c(=O)n(-c4ccccc4Cl)[nH]c3cc(=O)n2C)c1` ?
Solution: f

Problem: Hello, I am checking results. What call was entered for `CN(C)C/C=C/C(=O)Nc1cccc(C(=O)Nc2cccc(Nc3ncc(Cl)c(-c4c[nH]c5ccccc45)n3)c2)c1` ?
Solution: t

Problem: Hello, I am checking results. What call was entered for CN1CCN2c3ncccc3Cc3ccccc3C2C1 (configuration not stated) ?
Solution: f

Problem: Hello, I am checking results. What call was entered for `CCCCCCNC(=O)n1cc(F)c(=O)[nH]c1=O` ?
Solution: f

Problem: Hello, I am checking results. What call was entered for `Cc1cc2nc3ccc(=[N+](C)C)cc-3sc2cc1N` ?
Solution: t

Problem: Hello, I am checking results. What call was entered for `CS(=O)(=O)Oc1ccc2c(NC(N)=O)c(C(=O)c3ccc(Cl)cc3Cl)oc2c1` ?
Solution: f

Problem: Hello, I am checking results. What call was entered for CCOC(=O)C1=C(N)Oc2ccc(Br)cc2C1C(C#N)C(=O)OCC (configuration not stated) ?
Solution: f

Problem: Hello, I am checking results. What call was entered for `CCCCCCCCOc1ccc(C(=O)c2ccccc2)c(O)c1` ?
Solution: f
